All values here come from PubChem BioAssay (NCI).

tested on: HCC-2998 colon; test: NCI tumour cell line growth inhibition, 48 h
Metric: log10(TGI) (log10 of the value in µM)
Quick note: numbers are log10 of TGI, with µM as the unit.

For COc1ccc(-c2nc3sc4c(c3c(=O)[nH]2)CCCC4)c2ccccc12 the molecule record lists log10(TGI) as 1.90

For Cc1cc2nc3c4cccc(O)c4n(CCN(C)C)c3nc2cc1C the molecule record lists log10(TGI) as 0.48

For NCCCCNC1(c2cc3ccccc3s2)CCCCC1 the molecule record lists log10(TGI) as 0.49

For COc1ccc(-n2c3c(c4c(CN(C)C)c(O)c(C)cc42)CCc2ccccc2C3=O)cc1 the molecule record lists log10(TGI) as 1.83

For CCCCCCCCCCCCCCCCn1cc[n+](Cc2ccccc2)c1C the molecule record lists log10(TGI) as 0.21

For CCC(=O)c1ccc2c(c1)N(CCCN1CCN(CCO)CC1)c1ccccc1S2 the molecule record lists log10(TGI) as 1.42

For O=C(/C=C\c1ccc2ccccc2n1)c1cc(Cl)ccc1O the molecule record lists log10(TGI) as 1.45

For COc1cc(/C=C2\C(=O)Nc3ccccc32)cc(OC)c1OC the molecule record lists log10(TGI) as 1.52

For Cc1ccc(C[P+](c2ccccc2)(c2ccccc2)c2ccccc2)cc1 the molecule record lists log10(TGI) as 0.81

For CNCCOC(=O)/C=C1/CCC2C(C(O)CC3C(C)(C(=O)OC)CCCC23C)C1C (configuration not stated) the molecule record lists log10(TGI) as -0.94
